Assay read-out pIC50 on Serine/threonine-protein kinase mTOR (Homo sapiens, UniProt P42345); records merged from the literature.
pIC50: −log10 of the molar value.
Measured parameter: pIC50

| Chemical string | Value qualifier | Measured number |
| --- | --- | --- |
| O=c1[nH]c2ncc(-c3cnc4[nH]ccc4c3F)cc2n1C[C@H]1COCCO1 | > | 7.30 |
| CN(C)C(=O)c1ccc(NC(=O)Nc2ccc(-c3nc(N4CCOCC4)c4ccc(CO)cc4n3)cc2)cc1 | > | 7.30 |
| CCOc1cccc(-c2ccc3ncc4c(c3c2)n(-c2cn(C)nc2C)c(=O)n4C)c1 | = | 6.49 |
| COCCOc1cncc(-c2ccc3ncc4c(c3c2)n(-c2cn(C)nc2C)c(=O)n4C)c1 | = | 7.02 |

---

Assay read-out pIC50 on Serine/threonine-protein kinase mTOR (Homo sapiens, UniProt P42345); records merged from the literature.
pIC50: −log10 of the molar value.
Measured parameter: pIC50

| Compound | Result |
| --- | --- |
| COc1ccccc1-n1c(=O)[nH]c2c(C(N)=O)nc(-c3ccc(O)cc3)nc21 | 5.00 to 5.29 |
| C[C@H]1COCCN1c1nc(-c2ccc(NC(=O)NC3CC3)cc2)nc2c1SCCC2 | > 7.00 |
| NC(=O)c1nc(-c2cccc(O)c2)nc2c1[nH]c(=O)n2[C@H]1CC[C@H](O)CC1 | 5.30 to 7.00 |
| [2H]C([2H])([2H])OCc1ncc(-c2ccc3ncc4c(c3c2)n(-c2cn(C)nc2Cl)c(=O)n4C)cc1OC | 7.92 |
| Nc1ncc(-c2cc(Oc3ccccc3OC(F)(F)F)cc(N3CCOCC3)n2)cn1 | 5.69 |
| Cc1[nH]c2ncc(-c3cnc4[nH]c(=O)n(CC5CCOCC5)c4c3)cc2c1C | 5.30 to 7.00 |
| CC1(C)CC(Cn2c(=O)[nH]c3ncc(-c4cnc5[nH]ccc5c4)cc32)CCO1 (racemic) | > 7.30 |
| CS(=O)(=O)N1CCC(n2cnc3c(-c4cccc5[nH]ccc45)nc(N4CCOCC4)nc32)CC1 | > 6.00 |
| O=c1[nH]c2ncc(-c3ccc4[nH]ccc4c3)cc2n1C1CCOCC1 | 5.30 to 7.00 |
| CC(=O)N1CC(S(=O)(=O)c2cc(-c3cnc(N)nc3)cc(N3CCOCC3)c2)C1 | 5.92 |
| CC(C1CC1)n1cnc2c(-c3cccc4[nH]ccc34)nc(N3CCOCC3)nc21 (stereo not shown) | > 6.00 |
| O=c1[nH]c2ncc(-c3cnc4[nH]ncc4c3)cc2n1CC1CCOCC1 | 5.30 to 7.00 |
| CC(=O)N1CCN(C(=O)c2cccc(-c3cnc4c(N5CCOCC5)nc(-c5cnc(N)nc5)nc4c3)c2)CC1 | 6.70 to 7.30 |
| CC(C)n1c(=O)n(C)c2nnc3cc(F)c(-c4ccc(OCCCN5CCCCC5)nc4)cc3c21 | < 5.00 |
| CCCS(=O)(=O)Nc1ccc(F)c(-c2cc(OC)c3nc(-c4cnc(N)nc4)nc(N4CCOCC4)c3c2)c1F | 7.00 to 9.00 |
| N#CCC(=O)Nc1cccc(-c2cnc3c(N4CCOCC4)nc(-c4cnc(N)nc4)nc3c2)c1 | > 7.30 |
| CCCS(=O)(=O)Nc1cccc(-c2cc(OC)c3nc(-n4c(CO)nc5ccccc54)nc(N4CCOCC4)c3c2)c1F | 6.00 to 7.00 |
| COc1ccc(-c2ccc3c(N4CCOCC4)nc(-c4ccc(NC(=O)Nc5ccc(C(=O)N(C)C)cc5)c(F)c4)nc3c2)cn1 | 6.70 to 7.30 |
| Nc1ncc(-c2cc(OC3CCOC3)cc(N3CCOCC3)n2)cn1 (stereo not shown) | 5.76 |
| CN1CCN(CCn2c(=O)[nH]c3ncc(-c4cnc5[nH]ccc5c4)cc32)CC1 | > 7.30 |
| CC(O)c1ccc(-c2ccc3c(N4CCOCC4)nc(-c4ccc(NC(=O)Nc5ccc(C(=O)N(C)C)cc5)cc4F)nc3c2)o1 (stereo not shown) | > 7.30 |
| Cc1c[nH]c2ncc(-c3cnc4[nH]c(=O)n(C[C@H]5CC[C@@H](O)CO5)c4c3)c(C)c12 | > 7.30 |
| CCn1cc(-n2c(=O)n(C)c3cnc4ccc(-c5ccc(-n6cccn6)cc5)cc4c32)c(C)n1 | 8.22 |
| COc1ccccc1-n1c(=O)[nH]c2c(C(N)=O)nc(-c3cccc4[nH]cnc34)nc21 | < 4.52 |
| Nc1ncc(-c2nc(N3CCOCC3)c3ncc(-c4cccc(NC(=O)C5CC5)c4F)cc3n2)cn1 | > 7.30 |

---

Assay read-out pIC50 on Serine/threonine-protein kinase mTOR (Homo sapiens); records merged from the literature.
pIC50: −log10 of the molar value.

| Compound | pIC50 |
| --- | --- |
| CC(C)(C#N)c1ccc(-c2nnc3cnc4ccc(-c5ccc6nc(N)sc6c5)cc4n23)cn1 | > 7.00 |
| C[C@@H]1c2c(N3CCOC[C@@H]3C)nc(-c3ccc(NC(=O)NC4CC4)cc3)nc2C(C)(C)S1(=O)=O | > 7.00 |
| CC(C)Cn1c(N2CCN[C@@H](C)C2)nc2c(N3CCOCC3)nc(-c3cnc(N)nc3)nc21 | 7.52 to 8.00 |
| Cn1cc(-c2cc(-c3ccc(NS(C)(=O)=O)nc3)ccn2)n(-c2ccc(N3CCNCC3)c(C(F)(F)F)c2)c1=O | 5.00 to 7.00 |
| Cc1cnn(C)c1-n1c(=O)n(C)c2cnc3ccc(-c4cncc(OC(C)C)c4)cc3c21 | 6.25 |
| COc1cc(-c2ccc3ncc4c(c3c2)n(-c2cn(CCO)nc2C)c(=O)n4C)cnc1C | 7.89 |
| O=C(NCC(F)F)Nc1ccc(-c2nc3c(c(N4CC5CCC(C4)O5)n2)CS(=O)(=O)C3)cc1 | 6.00 to 7.00 |
| O=c1[nH]c2ncc(-c3cnc4[nH]ccc4c3)cc2n1CCN1CCOCC1 | > 7.30 |
| CC(c1ccccc1)n1c(=O)[nH]c2ncc(-c3cccc(NS(C)(=O)=O)c3)nc21 (stereo not drawn) | 5.30 to 7.00 |
| Cc1cc(-n2c(=O)n(C)c3cnc4ccc(-c5cnc(N)c(C(F)(F)F)c5)cc4c32)n(C)n1 | 7.09 |
| Cc1nn(C)cc1-n1c(=O)n(C)c2cnc3ccc(-c4cnc(F)c(N(C)C)c4)cc3c21 | 7.82 |
| COc1ncc(-c2ccn3ncc(C#CCO)c3n2)cc1NS(=O)(=O)c1ccc(F)cc1F | 8.05 |
| CC[C@H]1COCCN1c1nc(-c2ccc(NC(=O)NC3CC3)cc2)nc2c1CS(=O)(=O)C2(C)C | > 7.00 |
| COc1ccc(-c2ccc(-c3cnn4c5c(c(C6CC7CCC(C6)N7C(=O)C(C)(CO)CO)nc34)C(=O)CCN5)cn2)cc1F (stereo not drawn) | > 8.00 |
| c1cc2[nH]nnc2cc1-c1nc(N2CCOCC2)nc2c1ncn2CC1CC1 | < 5.30 |
| CN(C)C(=O)c1ccc(NC(=O)Nc2ccc(-c3nc(N4CCOCC4)c4cc(F)c(-c5cncnc5)cc4n3)cc2F)cc1 | > 7.30 |
| CN(C)C(=O)c1ccc(NC(=O)Nc2ccc(-c3nc(N4CCOCC4)c4ncc(-c5cncnc5)cc4n3)cc2)cc1 | > 7.30 |
| O=c1[nH]c2ncc(-c3cc4cc[nH]c4cc3F)cc2n1CC1CCOCC1 | > 7.30 |
| CN(C)C1CCN(C(=O)c2ccc(NC(=O)Nc3ccc(-c4nc(N5CCOCC5)c5ccc(C(C)(C)O)cc5n4)cc3)cc2)CC1 | > 7.30 |
| CCOc1cnc2ccc(-c3cnc(OC)c(NS(=O)(=O)c4ccc(Cl)s4)c3)cn2c1=O | 7.00 to 7.30 |
| Nc1ncc(-c2nc(N3CCOCC3)c3ccc(-c4cccnc4F)cc3n2)cn1 | < 6.00 |

---

Assay read-out IC50 on Serine/threonine-protein kinase mTOR (Homo sapiens); records merged from the literature.
Measured parameter: IC50

| Chemical string | Subject of test | Measured parameter | Result |
| --- | --- | --- | --- |
| C=CCn1c(=O)n(-c2cn(C)nc2C)c2c3cc(-c4cncc(N)c4)ccc3ncc21 | Serine/threonine-protein kinase mTOR (Homo sapiens) | IC50 | 147 nM |
| COc1ncccc1-c1nc(C(N)=O)c2[nH]c(=O)n(-c3ccccc3)c2n1 | Serine/threonine-protein kinase mTOR (Homo sapiens) | IC50 | > 30000 nM |
| Nc1ncc(-c2nc(N3CCOCC3)c3ccc(-c4cccc(NC(=O)N5CCOCC5)c4)cc3n2)cn1 | Serine/threonine-protein kinase mTOR (Homo sapiens) | IC50 | 50 to 200 nM |
| Nc1cc(F)c(-c2cc(N3CCOCC3)cc(S(=O)(=O)[C@@H]3CCOC3)c2)cn1 | Serine/threonine-protein kinase mTOR (Homo sapiens) | IC50 | 1460 nM |
| CN(C)[C@@H]1CCN(C(=O)c2ccc(NC(=O)Nc3ccc(-c4nc(N5CCOCC5)c5ccc(-c6cncnc6)cc5n4)cc3)cc2)C1 | Serine/threonine-protein kinase mTOR (Homo sapiens) | IC50 | < 50 nM |
| COc1ncc(-c2ccc3ncc4c(c3c2)n(-c2cn(C)nc2C)c(=O)n4C)cc1F | Serine/threonine-protein kinase mTOR (Homo sapiens) | IC50 | 63 nM |
| O=C1CCNc2c1c(N1CCS(=O)(=O)CC1)nc1c(-c3cnc4ccc(F)cc4c3)cnn21 | Serine/threonine-protein kinase mTOR (Homo sapiens) | IC50 | < 10 nM |
| Cc1nn(C)cc1-n1c(=O)n(C)c2cnc3ccc(-c4cnc5c(ccn5C)c4)cc3c21 | Serine/threonine-protein kinase mTOR (Homo sapiens) | IC50 | 15 nM |
| COc1cc(-c2cccc(NS(=O)(=O)CCCF)c2F)cc2c(N3CCOCC3)nc(-c3cnc4[nH]ccc4c3)nc12 | Serine/threonine-protein kinase mTOR (Homo sapiens) | IC50 | 1 to 100 nM |
| CN(C)C(=O)c1ccc(NC(=O)Nc2ccc(-c3nc(N4CCOCC4)c4ccc(-c5cccnc5NCCO)cc4n3)cc2)cc1 | Serine/threonine-protein kinase mTOR (Homo sapiens) | IC50 | 50 to 200 nM |
| Nc1ncc(-c2nc(N3CCOCC3)c3cc(-c4cccc(NS(=O)(=O)CCCF)c4F)cc(N4CCOCC4)c3n2)cn1 | Serine/threonine-protein kinase mTOR (Homo sapiens) | IC50 | 1 to 100 nM |
| Cc1nc(N)ncc1-c1nc(N2CCOCC2)c2nc(NCCN(C)C)n(CC3CC3)c2n1 | Serine/threonine-protein kinase mTOR (Homo sapiens) | IC50 | ≥ 500 nM |
| COc1ccccc1-n1c(=O)[nH]c2c(C(N)=O)nc(-c3cccc4ncccc34)nc21 | Serine/threonine-protein kinase mTOR (Homo sapiens) | IC50 | > 30000 nM |
| Cc1n[nH]c2c1c([C@H]1CC[C@H](C(=O)O)CC1)nc1c(-c3cnc4ccccc4c3)cnn12 | Serine/threonine-protein kinase mTOR (Homo sapiens) | IC50 | 10 to 100 nM |
| Cc1ccc(-c2ccc3ncc4c(c3c2)n(-c2cn(C)nc2C)c(=O)n4C)cn1 | Serine/threonine-protein kinase mTOR (Homo sapiens) | IC50 | 34 nM |
| Cc1nn(C)cc1-n1c(=O)n(C)c2cnc3ccc(-c4ccc(OCCO)nc4)cc3c21 | Serine/threonine-protein kinase mTOR (Homo sapiens) | IC50 | 60 nM |
